- Assay Comment: Tmax in Sprague-Dawley rat at 8 mg/kg, iv by LC-MS analysis
- Type: ADME, organism-based
- Experimental Parameters: in vivo
Assay Metric: Tmax (min)
// return numeric value only (unit: min, not printed)

In plain terms, CCCCCC[n+]1ccn(-c2ccc(C#Cc3ccc(-n4cc[n+](CCCCCC)c4)cc3)cc2)c1.[Br-].[Br-] has a documented Tmax of 4.98

====

- Tested on: Erythrocyte
- Assay Comment: Hemolytic activity in rabbit erythrocytes incubated for 1 hr
- Assay type: toxicity, cell-based, Oryctolagus cuniculus
Assay Metric: HC5

Smiles Str	Result
CCCC[n+]1ccn(-c2ccc(C#Cc3ccc(-n4cc[n+](CCCC)c4)cc3)cc2)c1.[Br-].[Br-]	2000 µg/mL
CCCCCC[n+]1ccn(-c2ccc(C#Cc3ccc(-n4cc[n+](CCCCCC)c4)cc3)cc2)c1.[Br-].[Br-]	800 µg/mL

In plain terms, CCCCCCCC[n+]1ccn(CCCCn2cc[n+](CCCCCCCC)c2)c1.[Br-].[Br-] has a documented HC5 of 400 µg/mL

In plain terms, CCCCCC[n+]1ccn(-c2ccc(CCc3ccc(-n4cc[n+](CCCCCC)c4)cc3)cc2)c1.[Br-].[Br-] has a documented HC5 of 1000 µg/mL
